System: SR leukemia
Test: NCI-60 one-dose screen, 48 h (100 = growth as untreated, 0 = no growth, -100 = all killed)
Details: 10 µM unless noted
About 83,000 compounds went through this panel and 20% of them were active in at least one assay; those are over-represented in the sample as a whole.
Please assign a class to every record based on measured growth, with ranges low = under 20%, moderate = from 20% up to 80%, high = 80% and over

Molecule	System	Class
[2H]C([2H])([2H])Oc1ccc(/C=C/C(=O)/C=C(O)/C=C/c2ccc(OC([2H])([2H])[2H])c(OC([2H])([2H])[2H])c2)cc1OC([2H])([2H])[2H]	SR leukemia	low
[2H]C([2H])([2H])Oc1c(F)cccc1/C=C/C(=O)/C=C(O)/C=C/c1cccc(F)c1OC([2H])([2H])[2H]	SR leukemia	high
CCNc1nc(-c2ccc(Cl)c(OC)c2)c(-c2ccnc(NCCNS(=O)(=O)c3ccc(Cl)cc3)n2)s1	SR leukemia	moderate
CC(=O)[C@H]1CC[C@]2(C)[C@@H]1CC[C@@H]1[C@@]3(C)C/C(=C/c4cccnc4)C(=O)C(C)(C)[C@@H]3CC[C@]12C	SR leukemia	moderate
C#CCOC(=O)C(N)CSSCC(N)C(=O)O (stereo not drawn)	SR leukemia	high
NCCCCCNc1noc(Cc2c[nH]c3cc(Br)ccc23)n1	SR leukemia	low
C=C(c1ccc(OC)c(/C=C/C(=O)c2cc(OC)c(OC)c(OC)c2)c1)c1cc(OC)c(OC)c(OC)c1	SR leukemia	low
O=C(Nc1cccc(Cl)c1)Oc1c(Cl)c(Cl)c(Cl)c(Cl)c1Cl	SR leukemia	high
C=C(C)[C@@H]1CC[C@]2(C(=O)NC(C)=O)CC[C@]3(C)[C@H](CC[C@@H]4[C@@]5(C)CCCNC(C)(C)[C@@H]5CC[C@]43C)[C@@H]12	SR leukemia	low
Cc1c(C(=O)C(SC(=S)N2CCOCC2)SC(=S)N2CCOCC2)nnn1-c1ccc([N+](=O)[O-])cc1	SR leukemia	moderate
O=C(OCC(O)C(=O)NC12CC3CC(CC(C3)C1)C2)c1cccc(Br)c1 (stereo not drawn)	SR leukemia	high
CCN=c1sc2c(n1NC(=O)c1cc3ccc1CCc1ccc(cc1)CC3)C(=O)c1ccccc1C2=O	SR leukemia	low
CC(=O)Cc1nsc(NC(=O)c2cc(-c3cc(Cl)ccc3Cl)oc2C)n1	SR leukemia	high
O=C1N/C(=N/N=C(c2ccccc2)c2ccccc2)S/C1=C\c1ccc(Br)cc1	SR leukemia	high
COc1ccc(/C(C)=C(\c2ccc(Cl)cc2)c2ccc(OCCCN(C)C)cc2)cc1	SR leukemia	low
COC(=O)c1c(C)nc(C)c2c1C(=O)C(Br)=C(NCCN1CCOCC1)C2=O	SR leukemia	high
C#Cc1ccc(NC(=O)Cc2ccc(/C=C/C(=O)c3nccn3C)cc2)cc1	SR leukemia	moderate

====

// reported growth per item
Test system: SR leukemia
Assay: NCI-60 one-dose screen, 48 h (100 = growth as untreated, 0 = no growth, -100 = all killed)
Details: 10 µM unless noted
This is part of a sample that, as a whole, favours compounds with a hit. Of some 83,000 tested, about 20% had one in any assay.
Test Readout: growth (%)

Compound	Readout Number
Cc1ccc(C2(C)NC(=O)N(CC(=O)Nc3cccc(C)c3)C2=O)cc1 (stereo not given)	-22.7
Cc1ccc(-c2nc(C#N)c(S(=O)(=O)n3nc(C)cc3N)o2)cc1	-25.8
COc1ccc(NC(=O)c2sc3nc(C)c(C(=O)c4ccccc4)cc3c2N)cc1	81.2
CCCC1Cc2cc(-n3nc(C)c4c3CC(C)(C)CC4=O)cc(NC3CCC(O)CC3)c2C(=O)N1 (stereo not given)	29.5
CCOC(=O)c1cc(C(=O)c2cc(OC)cc(OC)c2)n2ccccc12	16.3
O=C1c2c(c3c4cc(F)ccc4oc3c3[nH]c4ccccc4c23)C(=O)N1O	9.66
Cc1ccc2c(n1)C[C@H](C(C)(C)O)CC[C@H]2C	107
CCOC(=O)CC1C(CNC(=O)NC)OC(n2cnc3c(NC(=O)Nc4ccccc4)ncnc32)C1O[Si](C)(C)C(C)(C)C (stereo not given)	28.2
CN(C)CCOc1nc2c3cc([N+](=O)[O-])ccc3nn2c2ccccc12	7.43
Nc1ncc(-c2ccc3ncnc(N4CCc5cc(F)c(Cl)cc54)c3c2)cc1C=O	18.7
